Record: pIC50 reported on DNA polymerase beta (Rattus norvegicus, UniProt P06766).
When answering, recall that pIC50 equals minus log10 of the concentration in mol/L, and write that number alone.

Worked cases, pIC50 given:
[
  {
    "MOLECULE": "CCCCCCCCCCCCOc1cc(O)c2c(c1)C1=CC(=O)C(=O)CC1(C)OC2=O (configuration not stated) [dehydroaltenusin derivative, 16]",
    "pIC50": 4.96
  },
  {
    "MOLECULE": "COc1cc(O)c2c(c1)C1=CC(=O)C(=O)CC1(C)OC2=O (configuration not stated) [dehydroaltenusin]",
    "pIC50": 4.19
  },
  {
    "MOLECULE": "CC12CC(=O)C(=O)C=C1c1cc(O)cc(O)c1C(=O)O2 (configuration not stated) [desmethyldehydroaltenusin, 2]",
    "pIC50": 3.90
  }
]

Param readout= pIC50; system= DNA polymerase beta (Rattus norvegicus, UniProt P06766); entry= CCCOc1cc(O)c2c(c1)C1=CC(=O)C(=O)CC1(C)OC2=O (configuration not stated) [dehydroaltenusin derivative, 14] ; returns value.
4.46

Param readout= pIC50; system= DNA polymerase beta (Rattus norvegicus, UniProt P06766); entry= CCCCCCOc1cc(O)c2c(c1)C1=CC(=O)C(=O)CC1(C)OC2=O (configuration not stated) [dehydroaltenusin derivative, 15] ; returns value.
4.62
